Assay: Pharmacokinetics of SR13668 in monkeys after i.v. and oral gavage dosing
Type: in vivo, cynomolgus monkeys (macaca fasicularis)
Details: male, cynomolgus monkey, plasma, po, 7.02 mg/kg, plasma, 84.2 mg/m^2 (7.02 mg/kg) oral gavage, PEG400:Labrasol 1:1 v/v, seventh daily dose, fed, read-out: VZ/F
Protocol: Four non-naïve male beagle dogs (approximately 3 years of age; Ridglan Farms Inc. Mt. Horeb, Wis.) and four non-naïve male cynomolgus monkeys [cynos (macaca fasicularis); approximately 7 to 8 years of age; Charles River Laboratories, Inc., Houston, Tex.] were used in this study. […] A freshly prepared SR13668 standard curve was analyzed along with samples on each day of analysis. […]
reported property: Vd/F
Number first, unit second.

Input CCOC(=O)c1ccc2[nH]c3c(OC)c4[nH]c5ccc(C(=O)OCC)cc5c4cc3c2c1 [SR13668] . Output Vd/F: 203 L/kg

====

assay: Pharmacokinetics of SR13668 in dogs after i.v. and oral gavage dosing; format: in vivo, beagle dogs; conditions: male, beagle, dog, whole blood, iv, 4.68 mg/kg, dogs, whole blood; 93.6 mg/m^2 (4.68 mg/kg) iv single dose, DMSO:PEG300 15:85 v/v; fed
reported property: half-life (h)
Please respond with the number in h and leave the unit unwritten.

Input "CCOC(=O)c1ccc2[nH]c3c(OC)c4[nH]c5ccc(C(=O)OCC)cc5c4cc3c2c1" . Output half-life: 5

====

assay: Pharmacokinetics of SR13668 in monkeys after i.v. and oral gavage dosing; type: in vivo, cynomolgus monkeys (macaca fasicularis); conditions: male, cynomolgus monkey, whole blood, iv, 7.02 mg/kg, whole blood, 84.2 mg/m^2 (7.02 mg/kg) iv single dose, DMSO:PEG300 15:85 v/v, fed
reported property: AUC(0-inf) (ng·h/mL)
Please respond with the number in ng·h/mL and leave the unit unwritten.

Input "CCOC(=O)c1ccc2[nH]c3c(OC)c4[nH]c5ccc(C(=O)OCC)cc5c4cc3c2c1" . Output AUC(0-inf): 35400

====

assay: Solubility of SR13668 in various solvents; format: physicochemical; conditions: organic solvent or mixture, thermodynamic from solid; Ethyl Acetate; RT; HPLC
reported property: solubility (µg/mL)
Please respond with the number in µg/mL and leave the unit unwritten.

Input "CCOC(=O)c1ccc2[nH]c3c(OC)c4[nH]c5ccc(C(=O)OCC)cc5c4cc3c2c1" . Output solubility: 230

====

test: Pharmacokinetics of SR13668 in dogs after i.v. and oral gavage dosing; type: in vivo, beagle dogs; details: male, beagle, dog, plasma, po, 4.68 mg/kg, dogs; 93.6 mg/m^2 (4.68 mg/kg) oral gavage, Solutol, seventh daily dose; fasted
reported property: Tmax (h)
Please respond with the number in h and leave the unit unwritten.

Input CCOC(=O)c1ccc2[nH]c3c(OC)c4[nH]c5ccc(C(=O)OCC)cc5c4cc3c2c1 [SR13668] . Output Tmax: 2.8

====

assay: Solubility of SR13668 in various solvents; assay type: physicochemical; details: thermodynamic from solid; Water; RT; HPLC
reported property: solubility (µg/mL)
Please respond with the number in µg/mL and leave the unit unwritten.

Input "CCOC(=O)c1ccc2[nH]c3c(OC)c4[nH]c5ccc(C(=O)OCC)cc5c4cc3c2c1" . Output solubility: 0.01

====

assay: Pharmacokinetics of SR13668 in monkeys after i.v. and oral gavage dosing; format: in vivo, cynomolgus monkeys (macaca fasicularis); settings: male, cynomolgus, cynomolgus monkey, plasma, po, 7.02 mg/kg, plasma, 84.2 mg/m^2 (7.02 mg/kg) oral gavage, PEG400:Labrasol 1:1 v/v, seventh daily dose, fed
reported property: half-life (min)
Please respond with the number in min and leave the unit unwritten.

Input CCOC(=O)c1ccc2[nH]c3c(OC)c4[nH]c5ccc(C(=O)OCC)cc5c4cc3c2c1 [SR13668] . Output half-life: 360

====

assay: Pharmacokinetics of SR13668 in monkeys after i.v. and oral gavage dosing; assay type: in vivo, cynomolgus monkeys (macaca fasicularis); details: male, cynomolgus, cynomolgus monkey, plasma, po, 7.02 mg/kg, plasma, 84.2 mg/m^2 (7.02 mg/kg) oral gavage, PEG400:Labrasol 1:1 v/v, seventh daily dose, fed
reported property: Tmax

Input "CCOC(=O)c1ccc2[nH]c3c(OC)c4[nH]c5ccc(C(=O)OCC)cc5c4cc3c2c1" . Output Tmax: 5 h

====

experiment: Pharmacokinetics of SR13668 in dogs after i.v. and oral gavage dosing; format: in vivo, beagle dogs; settings: male, beagle, dog, plasma, iv, 4.68 mg/kg, dogs, plasma; 93.6 mg/m^2 (4.68 mg/kg) i.v. single dose, DMSO:PEG300 15:85 v/v; fed
reported property: Cmax (ng/mL)
Please respond with the number in ng/mL and leave the unit unwritten.

Input "CCOC(=O)c1ccc2[nH]c3c(OC)c4[nH]c5ccc(C(=O)OCC)cc5c4cc3c2c1" . Output Cmax: 2360

====

experiment: Pharmacokinetics of SR13668 in dogs after i.v. and oral gavage dosing; assay type: in vivo, beagle dogs; settings: male, beagle, dog, whole blood, po, 4.68 mg/kg, dogs; 93.6 mg/m^2 (4.68 mg/kg) oral gavage, Solutol, seventh daily dose; fasted
reported property: Cmax (ng/mL)
Please respond with the number in ng/mL and leave the unit unwritten.

Input "CCOC(=O)c1ccc2[nH]c3c(OC)c4[nH]c5ccc(C(=O)OCC)cc5c4cc3c2c1" . Output Cmax: 277

====

assay: Pharmacokinetics of SR13668 in dogs after i.v. and oral gavage dosing; type: in vivo, beagle dogs; conditions: male, beagle, dog, whole blood, po, 4.68 mg/kg, dogs; 93.6 mg/m^2 (4.68 mg/kg) oral gavage, Solutol, seventh daily dose; fed
reported property: Tmax (h)
Please respond with the number in h and leave the unit unwritten.

Input CCOC(=O)c1ccc2[nH]c3c(OC)c4[nH]c5ccc(C(=O)OCC)cc5c4cc3c2c1 [SR13668] . Output Tmax: 1.8

====

Assay: Pharmacokinetics of SR13668 in monkeys after i.v. and oral gavage dosing
Type: in vivo, cynomolgus monkeys (macaca fasicularis)
Conditions: male, cynomolgus monkey, plasma, po, 7.02 mg/kg, plasma, 84.2 mg/m^2 (7.02 mg/kg) oral gavage, PEG400:Labrasol 1:1 v/v, seventh daily dose, fed, read-out: CL/F (converted)
Description: Four non-naïve male beagle dogs (approximately 3 years of age; Ridglan Farms Inc. Mt. Horeb, Wis.) and four non-naïve male cynomolgus monkeys [cynos (macaca fasicularis); approximately 7 to 8 years of age; Charles River Laboratories, Inc., Houston, Tex.] were used in this study. […] A freshly prepared SR13668 standard curve was analyzed along with samples on each day of analysis. […]
reported property: CL/F

Input CCOC(=O)c1ccc2[nH]c3c(OC)c4[nH]c5ccc(C(=O)OCC)cc5c4cc3c2c1 [SR13668] . Output CL/F: 372 mL/min/kg

====

test: Pharmacokinetics of SR13668 in monkeys after i.v. and oral gavage dosing; format: in vivo, cynomolgus monkeys (macaca fasicularis); conditions: male, cynomolgus, cynomolgus monkey, plasma, po, 28.06 mg/kg, plasma, 336.7 mg/m^2 (28.06 mg/kg) oral gavage, PEG400:Labrasol 1:1 v/v, seventh daily dose, fed
reported property: half-life (h)
Please respond with the number in h and leave the unit unwritten.

Input "CCOC(=O)c1ccc2[nH]c3c(OC)c4[nH]c5ccc(C(=O)OCC)cc5c4cc3c2c1" . Output half-life: 5

====

assay: Pharmacokinetics of SR13668 in dogs after i.v. and oral gavage dosing; type: in vivo, beagle dogs; details: male, beagle, dog, plasma, po, 4.68 mg/kg, dogs; 93.6 mg/m^2 (4.68 mg/kg) oral gavage, Solutol, seventh daily dose; fed
reported property: half-life (h)
Please respond with the number in h and leave the unit unwritten.

Input CCOC(=O)c1ccc2[nH]c3c(OC)c4[nH]c5ccc(C(=O)OCC)cc5c4cc3c2c1 [SR13668] . Output half-life: 5.6

====

assay: Pharmacokinetics of SR13668 in dogs after i.v. and oral gavage dosing; format: in vivo, beagle dogs; settings: male, beagle, dog, whole blood; dogs, blood clearance; 93.6 mg/m^2 (4.68 mg/kg) iv, DMSO:PEG300 15:85 v/v; fed
reported property: clearance (mL/min/kg)
Please respond with the number in mL/min/kg and leave the unit unwritten.

Input CCOC(=O)c1ccc2[nH]c3c(OC)c4[nH]c5ccc(C(=O)OCC)cc5c4cc3c2c1 [SR13668] . Output clearance: 4.07

====

experiment: Solubility of SR13668 in various solvents; format: physicochemical; conditions: oil or lipid, thermodynamic from solid; Corn Oil; RT; HPLC
reported property: solubility (mg/mL)
Please respond with the number in mg/mL and leave the unit unwritten.

Input CCOC(=O)c1ccc2[nH]c3c(OC)c4[nH]c5ccc(C(=O)OCC)cc5c4cc3c2c1 [SR13668] . Output solubility: 0.108

====

experiment: Solubility of SR13668 in various solvents; assay type: physicochemical; settings: organic solvent or mixture, thermodynamic from solid; Acetonitrile; RT; HPLC
reported property: solubility (µg/mL)
Please respond with the number in µg/mL and leave the unit unwritten.

Input "CCOC(=O)c1ccc2[nH]c3c(OC)c4[nH]c5ccc(C(=O)OCC)cc5c4cc3c2c1" . Output solubility: 84.9
